biological target: Sigma intracellular receptor 2 (Homo sapiens) (UniProt Q5BJF2); settings: Compound concentration 10 µM
Sequence (Q5BJF2 whole entry): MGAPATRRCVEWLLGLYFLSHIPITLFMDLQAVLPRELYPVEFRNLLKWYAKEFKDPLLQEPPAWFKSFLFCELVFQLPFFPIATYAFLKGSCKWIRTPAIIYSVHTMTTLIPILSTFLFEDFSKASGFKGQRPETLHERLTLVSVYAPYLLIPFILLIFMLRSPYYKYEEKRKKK
Description: PDSP Primary Binding target: TMEM97 - Compounds are tested at 10 uM concentration, plate are incubated at room temperature in the dark for 90 minutes. Reaction are stopped by vacuum filtration onto 0.3% polyethyleneimine soaked filter mats using Filtermate harvester. Scintilation cocktail is then melted onto microwave-dried filters on a hot plate and the radio activity is counted in Microbia counter.

molecule | endpoint.unit | inhibition
Cc1cccc(NC(=O)N[C@@H]2N=C(c3ccccc3)c3ccccc3N(C)C2=O)c1 | % | 15.4
COc1cccc([C@H](O)C2CCN(CCc3ccc(F)cc3)CC2)c1OC | % | 95.9
C[C@H](NC[C@H](O)CP(=O)(O)CC1CCCCC1)c1ccc(Cl)c(Cl)c1 | % | 26.7
Cc1cc(NC(=O)NCCN2CCC(O)(Cc3ccccc3)CC2)c2ccccc2n1 | % | 86
CN(C)C(=O)N[C@H]1CC[C@H](CCN2CCN(c3cccc(Cl)c3Cl)CC2)CC1 | % | 88.3
O=c1ccc2ccc(OCCCCN3CCN(c4cccc5sccc45)CC3)cc2[nH]1 | % | 95.6
NC[C@H](O)c1ccc(O)c(O)c1 | % | 24.6
COc1ccc2[nH]cc(CCNC(C)=O)c2c1 | % | 22.1
CCC[C@H](Oc1cc(C)c(-n2cc(C(F)(F)F)cn2)c(C)c1)c1ccc(C(=O)NCCC(=O)O)cc1 | % | 2.23
CNC[C@H](O)c1cccc(O)c1 | % | 24.9
CC(C)NC(=O)c1ccc(C#Cc2ccncc2)cn1 | % | 8.09
NC(=O)[C@@H]1CCCN1C(=O)[C@H](Cc1c[nH]cn1)NC(=O)[C@@H]1CCC(=O)N1 | % | 35
COC(=O)C1=C(C)NC(C)=C(C(=O)OCCCN2CCC(c3ccccc3)(c3ccccc3)CC2)[C@H]1c1cccc([N+](=O)[O-])c1 | % | 98.7
N#Cc1cccc(C(=O)Nc2cc(-c3ccccc3)nn2-c2ccccc2)c1 | % | -8.91
O=C(Cc1ccccc1)Nc1nc2ccc(Cl)cc2c2nc(-c3ccco3)nn12 | % | -6.83
C/C(=N\NC(=O)[C@@H]1C(=O)NC[C@H]1c1ccccc1)c1cccc(Br)c1 | % | 4.05
COc1ccnc(N2CCC3(CCCN(Cc4c[nH]c5ccccc45)C3=O)CC2)n1 | % | 34.7
CN1C2CCC1CC(OC(c1ccc(F)cc1)c1ccc(F)cc1)C2 (stereo unspecified) | % | 100
N#Cc1ccc2[nH]cc(CCCCN3CCN(c4ccc5oc(C(N)=O)cc5c4)CC3)c2c1 | % | 80.3
CC(C)[C@H](CO)Nc1nc(Nc2cccc(Cl)c2)c2ncn(C(C)C)c2n1 | % | 63.1
CN(C(=O)Cc1ccc(Cl)c(Cl)c1)C(CN1CCCC1)c1cccc(OCC(=O)O)c1 (stereo unspecified) | % | 21.9
Clc1ccc(CCCOCCCN2CCCCC2)cc1 | % | 98.7
OC1(c2ccc(Cl)cc2)CCN(Cc2c[nH]c3ccccc23)CC1 | % | 97.8
Nc1nc2c(c(N3CCNCC3)n1)CCC1=C2[C@@H]2CCCC[C@@H]2O1 | % | 36.6
Cc1nc(C(=O)N2CCC[C@H]2Cc2nnc(-c3ccccc3)o2)c(-c2ccccc2F)s1 | % | 12.9
CCCCCCCCCCCCC/C=C/[C@@H](O)[C@@H](N)COP(=O)(O)O | % | 79.4

###

molecular target: Sigma intracellular receptor 2 (Homo sapiens) (UniProt Q5BJF2); conditions: Compound concentration 10 µM; call rule not given here
Outcomes: true = active, false = inactive

molecule | group.label
CC(C)(C(=O)O)c1ccc(C(O)CCCN2CCC(C(O)(c3ccccc3)c3ccccc3)CC2)cc1 (stereo not drawn) | false
Cc1nc(-c2ccc(-c3ccc(C(=O)N4CCc5cc6c(cc54)C4(CCN(C)CC4)CO6)cc3)c(C)c2)no1 | true
FC(F)(F)c1c(N2CCC(c3ccccc3)CC2)ccn2c(CC3CC3)nnc12 | false
C[C@@H](N)Cc1c[nH]cn1 | false
CO[C@@H]1COCC[C@@H]1N[C@@H]1CC[C@@](C(=O)N2CCc3ncc(C(F)(F)F)cc3C2)(C(C)C)C1 | true
Cc1c(OCc2cccc(-c3ccc(C(=O)O)cc3)c2)cc2c(c1C)C(=O)C(C1CCCC1)C2 (stereo not drawn) | false
COc1cc2c(CCNC(C)=O)c[nH]c2cc1Cl | false
CCc1nn2c(C)cc(C)nc2c1Cc1ccc(-c2nnc(C3CCNCC3)o2)cc1 | true

###

target: Delta-type opioid receptor (Homo sapiens); conditions: Compound concentration 10 µM
Description: PDSP Primary Binding target: OPRD1 - Compounds are tested at 10 uM concentration, plate are incubated at room temperature in the dark for 90 minutes. Reaction are stopped by vacuum filtration onto 0.3% polyethyleneimine soaked filter mats using Filtermate harvester. Scintilation cocktail is then melted onto microwave-dried filters on a hot plate and the radio activity is counted in Microbia counter.
quantity: inhibition (%)

compound | assay.system | quantity | meas.value
O=C(Cc1ccc(Cl)c(Cl)c1)N1CCCC[C@H]1CN1CCCC1 | Delta-type opioid receptor (Homo sapiens) | inhibition | 17.6
O=C(c1cc2c(cc1F)OC(c1ccc(F)cc1)(c1ccc(Cl)cc1Cl)O2)N1CCOCC1 (configuration not stated) | Delta-type opioid receptor (Homo sapiens) | inhibition | 24.5
CC1CCN(CC[C@H]2CCCN2S(=O)(=O)c2cccc(O)c2)CC1 | Delta-type opioid receptor (Homo sapiens) | inhibition | 7.91
CCN(CC)CCCCC1CCN(CC(=O)N2c3ccccc3C(=O)Nc3cccnc32)CC1 | Delta-type opioid receptor (Homo sapiens) | inhibition | 24.6
CS(=O)(=O)NC[C@H]1CC[C@H](Nc2nc3c(s2)CCSc2ccccc2-3)CC1 | Delta-type opioid receptor (Homo sapiens) | inhibition | 4.54
CN(C(=O)Cc1ccc(Cl)c(Cl)c1)C(CN1CCCC1)c1cccc(OCC(=O)O)c1 (configuration not stated) | Delta-type opioid receptor (Homo sapiens) | inhibition | 71.9
NC[C@H](O)c1ccc(O)c(O)c1 | Delta-type opioid receptor (Homo sapiens) | inhibition | -5.14
CC[C@@H]1CN2C(=O)N(C)c3nc(-c4ccccc4)[nH]c3C2=N1 | Delta-type opioid receptor (Homo sapiens) | inhibition | -7.99
CN1C(=O)[C@@H](NC(=O)c2cc3ccccc3[nH]2)N=C(c2ccccc2)c2ccccc21 | Delta-type opioid receptor (Homo sapiens) | inhibition | 13
CO[C@@H]1COCC[C@@H]1N[C@@H]1CC[C@@](C(=O)N2CCc3ncc(C(F)(F)F)cc3C2)(C(C)C)C1 | Delta-type opioid receptor (Homo sapiens) | inhibition | -2.34
O=C(O)c1cc(-c2ccc(C3CCNCC3)cc2)c2ccc(-c3ccc(C(F)(F)F)cc3)cc2c1 | Delta-type opioid receptor (Homo sapiens) | inhibition | 14
CCC(=O)NCC[C@@H]1CCc2ccc3c(c21)CCO3 | Delta-type opioid receptor (Homo sapiens) | inhibition | -5.97
CN1CCC(=C2c3ccccc3CC(=O)c3sccc32)CC1 | Delta-type opioid receptor (Homo sapiens) | inhibition | 14.2
CCCCC#Cc1nc(NC)c2ncn([C@@H]3O[C@H](CO)[C@@H](O)[C@H]3O)c2n1 | Delta-type opioid receptor (Homo sapiens) | inhibition | 9.12
N#Cc1c(N)nc(SCC(N)=O)c(C#N)c1-c1ccc(OCC2CC2)cc1 | Delta-type opioid receptor (Homo sapiens) | inhibition | -1.99
CC(C)NCC(O)COc1cccc2ccccc12 (configuration not stated) | Delta-type opioid receptor (Homo sapiens) | inhibition | 7.31
Cc1csc(NC(=O)c2cc(F)cc(Oc3cncnc3)c2)n1 | Delta-type opioid receptor (Homo sapiens) | inhibition | -0.43
COc1cc(-n2cnc3cc(-c4ccc(Cl)cc4)sc3c2=O)ccc1OCCN1CCCC1 | Delta-type opioid receptor (Homo sapiens) | inhibition | 28.9
CCCCCCCCCCCCCCCCOC[C@H](COP(=O)([O-])OCC[N+](C)(C)C)OC(C)=O | Delta-type opioid receptor (Homo sapiens) | inhibition | 43.7
CCOC(=O)c1c(C)[nH]c2ccc3c(c12)CN1CCc2cc(OC)ccc2C1O3 (configuration not stated) | Delta-type opioid receptor (Homo sapiens) | inhibition | -2.17
CCCCN(CCCC)C(=O)CN1C[C@@H](c2ccc3c(c2)OCO3)[C@H](C(=O)O)[C@H]1c1ccc(OC)cc1 | Delta-type opioid receptor (Homo sapiens) | inhibition | -0.59
Cc1nc2sccn2c(=O)c1CCN1CCC(=C(c2ccc(F)cc2)c2ccc(F)cc2)CC1 | Delta-type opioid receptor (Homo sapiens) | inhibition | 17.7
O=C1N/C(=N/c2ccccc2F)S/C1=C\c1ccc(C(=O)O)cc1 | Delta-type opioid receptor (Homo sapiens) | inhibition | -1.84
CSc1ccc(C(=O)N[C@@H]2CCCC[C@@H]2NC(=O)CNC(=O)c2cc(C(F)(F)F)ccc2NC(=O)NC(C)C)cc1 | Delta-type opioid receptor (Homo sapiens) | inhibition | 4.07
c1cc(CN2CCCNCCNCCCNCC2)ccc1CN1CCCNCCNCCCNCC1 | Delta-type opioid receptor (Homo sapiens) | inhibition | -4.5
O=S1(=O)c2cccc3cccc(c23)N1CCCN1CCN(c2ccc(F)cc2)CC1 | Delta-type opioid receptor (Homo sapiens) | inhibition | 8.66
CN(C)C(=O)C(CCN1CCC(O)(c2ccc(Cl)cc2)CC1)(c1ccccc1)c1ccccc1 | Delta-type opioid receptor (Homo sapiens) | inhibition | 91.5

###

biological target: Kappa-type opioid receptor (Homo sapiens); conditions: Compound concentration 10 µM; call rule not given here
Outcomes: 1 (yes) for active, 0 (no) for inactive

compound | assay.system | group.label
Cc1cc(C)cc(C(=O)N(C)[C@H](Cc2ccc(-c3ccccc3)cc2)C(=O)N[C@@H](Cc2c[nH]c3ccccc23)C(=O)O)c1 | Kappa-type opioid receptor (Homo sapiens) | 0 (no)
N#Cc1c(N)nc(SCC(N)=O)c(C#N)c1-c1ccc(OCC2CC2)cc1 | Kappa-type opioid receptor (Homo sapiens) | 1 (yes)
FC(F)(F)c1cccc(-c2noc(-c3cc(-c4ccccc4)c(C(F)(F)F)s3)n2)c1 | Kappa-type opioid receptor (Homo sapiens) | 0 (no)
CCc1ccc(OCc2ccccc2C(=O)Nc2ccc3nc(C)cc(N)c3c2)cc1 | Kappa-type opioid receptor (Homo sapiens) | 1 (yes)
C[C@]1(C(=O)N(CCCC(=O)O)Cc2cccc(Cl)c2)CCN1C(=O)c1csc2ccccc12 | Kappa-type opioid receptor (Homo sapiens) | 0 (no)
O=c1ccn([C@@H]2O[C@H](COP(=O)(O)OP(=O)(O)OP(=O)(O)O)[C@@H](O)[C@H]2O)c(=O)[nH]1 | Kappa-type opioid receptor (Homo sapiens) | 0 (no)
Cc1cn2cc(CC(=O)N3CCC4(CC3)CN(Cc3ccc(-n5nccn5)cc3Cl)C4)nc2s1 | Kappa-type opioid receptor (Homo sapiens) | 0 (no)
CC1CCN(CC[C@H]2CCCN2S(=O)(=O)c2cccc(O)c2)CC1 | Kappa-type opioid receptor (Homo sapiens) | 1 (yes)
C[C@H](NC[C@H](O)CP(=O)(O)CC1CCCCC1)c1ccc(Cl)c(Cl)c1 | Kappa-type opioid receptor (Homo sapiens) | 1 (yes)
O=c1ccc2ccc(OCCCCN3CCN(c4cccc5sccc45)CC3)cc2[nH]1 | Kappa-type opioid receptor (Homo sapiens) | 0 (no)
NC[C@@H]1O[C@H](C23CC4CC(CC(C4)C2)C3)Cc2c1ccc(O)c2O | Kappa-type opioid receptor (Homo sapiens) | 0 (no)
Cc1nc(C#Cc2ccnc(Cl)c2)c(C)n1-c1ccc(OC(F)(F)F)cc1 | Kappa-type opioid receptor (Homo sapiens) | 0 (no)
CC(C)NCC(O)COc1ccc(CCOCC2CC2)cc1 (centres undefined) | Kappa-type opioid receptor (Homo sapiens) | 0 (no)
CC(C)NCC(O)COc1cccc2[nH]ccc12 (centres undefined) | Kappa-type opioid receptor (Homo sapiens) | 0 (no)
